B1: WDR41 (parent)
chain: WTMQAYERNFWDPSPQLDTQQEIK

- Variants of: B1
- Assay Procedure: protein stability index of a GFP-peptide fusion (GPS, HEK-293T) (PSI 1-6); higher = more stable;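 note: lentivirally expressed fusions sorted by FACS into six bins by GFP to DsRed ratio, PSI derived from sequencing read proportions per bin multiplied by bin number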
- Protocol Conditions: c terminus: a fixed tail appended
Tag: T if measured protein stability index is not below 2, F if it is.

In: # bool: protein stability index of WQMQAYERNFWDPSPQLDTQQEIK [T2Q] >= 2
Out: T

In: # bool: protein stability index of WTMQAYERNFWDPSPQLDCQQEIK [T19C] >= 2
Out: T

In: # bool: protein stability index of WTMQAYERDFWDPSPQLDTQQEIK [N9D] >= 2
Out: T

In: # bool: protein stability index of WTMQAYERNFWDPEPQLDTQQEIK [S14E] >= 2
Out: T

In: # bool: protein stability index of WTMQAYWRNFWDPSPQLDTQQEIK [E7W] >= 2
Out: T

In: # bool: protein stability index of WTMQAYERNFWDPSPILDTQQEIK [Q16I] >= 2
Out: T

In: # bool: protein stability index of WWMQAYERNFWDPSPQLDTQQEIK [T2W] >= 2
Out: T

In: # bool: protein stability index of WTMQAPERNFWDPSPQLDTQQEIK [Y6P] >= 2
Out: T

In: # bool: protein stability index of LTMQAYERNFWDPSPQLDTQQEIK [W1L] >= 2
Out: T

In: # bool: protein stability index of WTMQAYSRNFWDPSPQLDTQQEIK [E7S] >= 2
Out: T

In: # bool: protein stability index of WTMQAYERNEWDPSPQLDTQQEIK [F10E] >= 2
Out: T

In: # bool: protein stability index of WTMQAYERNFWDPSPQLDTRQEIK [Q20R] >= 2
Out: T

In: # bool: protein stability index of WTMQAYERNFWDPSPQLDTQQNIK [E22N] >= 2
Out: T

In: # bool: protein stability index of WTMQAYERNFWDYSPQLDTQQEIK [P13Y] >= 2
Out: T

In: # bool: protein stability index of WTMQAYERNFWDPSPQDDTQQEIK [L17D] >= 2
Out: T

In: # bool: protein stability index of WTMQGYERNFWDPSPQLDTQQEIK [A5G] >= 2
Out: T

In: # bool: protein stability index of RTMQAYERNFWDPSPQLDTQQEIK [W1R] >= 2
Out: T

In: # bool: protein stability index of WTMQADERNFWDPSPQLDTQQEIK [Y6D] >= 2
Out: T

In: # bool: protein stability index of WTMQAYERNFWDPSPQLDTQQWIK [E22W] >= 2
Out: F

In: # bool: protein stability index of WTMQSYERNFWDPSPQLDTQQEIK [A5S] >= 2
Out: T

In: # bool: protein stability index of WTMQAYERNFWDPSPQLDTQQEIA [K24A] >= 2
Out: T

In: # bool: protein stability index of WIMQAYERNFWDPSPQLDTQQEIK [T2I] >= 2
Out: F

In: # bool: protein stability index of WTMQAYERNCWDPSPQLDTQQEIK [F10C] >= 2
Out: T

In: # bool: protein stability index of WTMQAYERNFWDPSPSLDTQQEIK [Q16S] >= 2
Out: F

In: # bool: protein stability index of WTMQAYERNFWDPSPQLDTQQEFK [I23F] >= 2
Out: T

In: # bool: protein stability index of WTMQFYERNFWDPSPQLDTQQEIK [A5F] >= 2
Out: F

In: # bool: protein stability index of WTMQAYERNIWDPSPQLDTQQEIK [F10I] >= 2
Out: T

In: # bool: protein stability index of WTMQAYERNFWDPSPQLDTCQEIK [Q20C] >= 2
Out: T

In: # bool: protein stability index of WTMQAYERNFWDPSLQLDTQQEIK [P15L] >= 2
Out: T

In: # bool: protein stability index of WTMRAYERNFWDPSPQLDTQQEIK [Q4R] >= 2
Out: F

In: # bool: protein stability index of WTMQAYERNFWDSSPQLDTQQEIK [P13S] >= 2
Out: T

In: # bool: protein stability index of WTMQAYERNFWDPDPQLDTQQEIK [S14D] >= 2
Out: T

In: # bool: protein stability index of WRMQAYERNFWDPSPQLDTQQEIK [T2R] >= 2
Out: T

In: # bool: protein stability index of WTMQAYERHFWDPSPQLDTQQEIK [N9H] >= 2
Out: F

In: # bool: protein stability index of WTDQAYERNFWDPSPQLDTQQEIK [M3D] >= 2
Out: T

In: # bool: protein stability index of WTMIAYERNFWDPSPQLDTQQEIK [Q4I] >= 2
Out: T

In: # bool: protein stability index of WTMQAYERGFWDPSPQLDTQQEIK [N9G] >= 2
Out: T

In: # bool: protein stability index of WTMQAYERNFWDPSPQLFTQQEIK [D18F] >= 2
Out: T

In: # bool: protein stability index of WTMQAYERNLWDPSPQLDTQQEIK [F10L] >= 2
Out: T

In: # bool: protein stability index of WTMQAYERNFKDPSPQLDTQQEIK [W11K] >= 2
Out: T

In: # bool: protein stability index of WTSQAYERNFWDPSPQLDTQQEIK [M3S] >= 2
Out: F

In: # bool: protein stability index of WTMQAYERNFWDPAPQLDTQQEIK [S14A] >= 2
Out: T

In: # bool: protein stability index of WTMQAYERNFWDPSKQLDTQQEIK [P15K] >= 2
Out: T

In: # bool: protein stability index of WTNQAYERNFWDPSPQLDTQQEIK [M3N] >= 2
Out: T
